// provenance: patent US10233180B2

System: Human ovarian cancer cell strain OVCAR-8
method-summary: MTT assay, inhibition of tumor cell growth in vitro, 72 h
Assay type: cell-based
assay-context: Homo sapiens, OVCAR-8, MTT, read-out: Antitumor proliferative activities of tumor cell (IC50, μM) OVCAR-8
Here the recorded IC50 is given for each entry.
Quick reminder: number only, in µM, skip the unit.

Prompt: Bench note: what IC50 did CCC[C@H]1CNC[C@@H](NC(=O)c2ccc(-c3c(Cl)cnn3C)s2)[C@@H]1c1cccc(F)c1 show?
Response: 1.52

Prompt: Bench note: what IC50 did Cc1c(C(=O)N[C@H]2CNCC[C@@H]2C2CCCC(Cl)C2)sc(Cl)c1-c1ncnn1C (stereo partly shown) show?
Response: 5.69

Prompt: Bench note: what IC50 did Cn1ncc(Cl)c1-c1cc(C(=O)N[C@@H]2CNC(CC(=O)NCCO)C[C@H]2c2ccc(Cl)c(Cl)c2)oc1Cl (stereo partly shown) show?
Response: 0.12

Prompt: Bench note: what IC50 did Cn1ncc(Br)c1-c1ccc(C(=O)N[C@@H]2CNCC[C@H]2c2cccc(F)c2)s1 show?
Response: 2.43

Prompt: Bench note: what IC50 did CNC(=O)CC1C[C@@H](c2ccc(F)c(F)c2)[C@H](NC(=O)c2cc(-c3c(Cl)cnn3C)cs2)CN1 (stereo partly shown) show?
Response: 5.79

Prompt: Bench note: what IC50 did Cn1ncc(Cl)c1-c1cc(C(=O)N[C@H]2CNCC[C@@H]2c2ccc(Cl)c(Cl)c2)oc1Cl show?
Response: 14.3

Prompt: Bench note: what IC50 did Cn1nccc1-c1ccc(C(=O)N[C@@H]2CNCC[C@H]2c2cccc(F)c2)s1 show?
Response: 4.19

---

For Akt1 (Homo sapiens), measured pIC50 is reported for the entries below.
For clarity, pIC50 is expressed as the negative log10 of concentration in mol/L.

compound	pIC50
COc1cc(C(=O)N[C@@H]2CNCC[C@H]2c2cccc(F)c2)ccc1-c1c(Cl)cnn1C [Compound 83]	8.00
Cc1cc(C(=O)N[C@@H]2CNCC[C@H]2c2ccc(F)c(F)c2)ncc1-c1c(Cl)cnn1C [Compound 94]	8.15
Cn1ncc(Cl)c1-c1cc(C(=O)N[C@@H]2CNC(CCN3CCCC(O)C3)C[C@H]2c2ccc(Cl)c(Cl)c2)oc1Cl (stereo partly drawn) [Compound 115]	9.10
Cn1ncc(Cl)c1-c1ccc(C(=O)N[C@@H]2CNCC[C@H]2c2cccc(F)c2)cc1 [Compound 73]	8.15
Cc1sc(C(=O)N[C@H]2CNCC[C@@H]2c2ccc(F)c(F)c2)nc1-c1c(Cl)cnn1C (racemic) [Compound 20]	7.92
Cn1ncc(Cl)c1-c1cc(C(=O)N[C@H]2CNCC[C@@H]2c2ccc(C(F)(F)F)cc2)oc1Cl [Compound 43]	6.47
Cn1ncc(Cl)c1-c1cc(C(=O)N[C@@H]2CNC(CCO)C[C@H]2c2ccc(F)c(F)c2)oc1Cl (stereo partly drawn) [Compound 129]	9.40
Cc1cccc([C@H]2CCNC[C@@H]2NC(=O)c2cc(C)c(-c3c(Br)cnn3C)cc2C)c1 (racemic) [Compound 57]	7.09

// next item, pIC50 requested
Prompt: Bench note: what pIC50 did Cn1ncc(Cl)c1-c1cc(C(=O)N[C@@H]2CNC(CC(=O)NCC(O)CO)C[C@H]2c2ccc(Cl)c(Cl)c2)oc1Cl (stereo partly drawn) [Compound 121] show?
Response: 8.30

---

Here the recorded log10(IC50) is given for each entry.
System: human colon cancer cell strain HCT-116
method-summary: MTT assay, inhibition of tumor cell growth in vitro, 72 h
Format: cell-based
assay-context: Homo sapiens, HCT-116, MTT, read-out: Antitumor proliferative activities of tumor cell (IC50, μM) HCT-116 (converted)
log10 IC50, µM

compound	log10(IC50)
Cc1cccc([C@H]2CCNC[C@@H]2NC(=O)c2cc(C)c(-c3c(Br)cnn3C)cc2C)c1 (racemic)	0.40

// next item, log10(IC50) requested
Prompt: Bench note: what log10(IC50) did Cn1ncc(Br)c1-c1csc(C(=O)N[C@H]2CNCC[C@@H]2c2ccc(Cl)cc2)c1 (racemic) show?
Response: 0.35

---

Here the recorded log10 IC50 is given for each entry.
Tested on: human colon cancer cell strain HCT-116
method-summary: MTT assay, inhibition of tumor cell growth in vitro, 72 h
Assay type: cell-based
assay-context: Homo sapiens, HCT-116, MTT, read-out: Antitumor proliferative activities of tumor cell (IC50, μM) HCT-116 (converted)
log10 IC50, µM

compound	test-system	log10 IC50
Cn1ncc(Br)c1-c1ccc(C(=O)N[C@@H]2CNCC[C@H]2c2ccc(Cl)cc2)cc1 [Compound 72]	human colon cancer cell strain HCT-116	-0.04
Cn1ncc(Cl)c1-c1ccc(C(=O)N[C@@H]2CNCC[C@H]2c2cccc(F)c2)cc1 [Compound 73]	human colon cancer cell strain HCT-116	0.08
Cc1[nH]c(C(=O)N[C@H]2CNCC[C@@H]2c2ccncc2)cc1-c1c(Br)cnn1C (racemic) [Compound 6]	human colon cancer cell strain HCT-116	1.03
Cn1ncc(Br)c1-c1coc(C(=O)N[C@H]2CNCC[C@@H]2c2ccc(F)c(F)c2)c1 (racemic) [Compound 28]	human colon cancer cell strain HCT-116	1.07
Cc1cnn(C)c1-c1cnc(C(=O)N[C@@H]2CNCC[C@H]2c2ccc(F)c(F)c2)cc1F [Compound 62]	human colon cancer cell strain HCT-116	1.49

Prompt: Bench note: what log10 IC50 did CCc1cnn(C)c1-c1cccc(C(=O)N[C@H]2CNCC[C@@H]2c2ccc(Cl)cc2)c1Cl (racemic) [Compound 53] show?
Response: 0.42

Prompt: Bench note: what log10 IC50 did CNC(=O)CC1C[C@@H](c2cccc(F)c2)[C@H](NC(=O)c2cc(Cl)c(-c3c(Cl)cnn3C)s2)CN1 (stereo partly shown) [Compound 149] show?
Response: 0.41

---

Test system: human colon cancer cell strain HCT-116
method-summary: MTT assay, inhibition of tumor cell growth in vitro, 72 h
Type: cell-based
assay-context: Homo sapiens, HCT-116, MTT, read-out: Antitumor proliferative activities of tumor cell (IC50, μM) HCT-116 (converted)
reported-property: IC50 (µM)
Quick reminder: number only, in µM, skip the unit.

Examples with their reported IC50 follow.
molecule	reported-property	reported-value
Cn1ncc(Cl)c1-c1cc(C(=O)N[C@@H]2CNC(CC(=O)NCC(O)CO)C[C@H]2c2ccc(Cl)c(Cl)c2)oc1Cl (stereo partly shown)	IC50	0.36
Cc1[nH]c(C(=O)N[C@H]2CNCC[C@@H]2c2cccc(C#N)c2)cc1-c1c(Br)cnn1C (racemic)	IC50	3.31
Cn1ncc(Br)c1-c1csc(C(=O)N[C@@H]2CNCC[C@H]2c2ccc(F)c(F)c2)c1	IC50	8.11

Prompt: Bench note: what IC50 did Cc1cnn(C)c1-c1cnc(C(=O)N[C@H]2CNCC[C@@H]2c2ccc(F)c(F)c2)cc1F (racemic) [Compound 46] show?
Response: 23.8

Prompt: Bench note: what IC50 did Cn1ncc(Cl)c1-c1coc(C(=O)N[C@H]2CNCC[C@@H]2c2ccc(C(F)(F)F)cc2)c1 (racemic) show?
Response: 2.9

Prompt: Bench note: what IC50 did Cn1ncc(Cl)c1-c1cc(C(=O)N[C@@H]2CNCC[C@H]2c2ccc(Cl)c(Cl)c2)oc1Cl show?
Response: 1.56

Prompt: Bench note: what IC50 did CNC(=O)CC1C[C@@H](c2ccc(F)c(F)c2)[C@H](NC(=O)c2ccc(-c3c(Cl)cnn3C)s2)CN1 (stereo partly shown) show?
Response: 2.82

---

System: Human ovarian cancer cell strain OVCAR-8
method-summary: MTT assay, inhibition of tumor cell growth in vitro, 72 h
Format: cell-based
assay-context: Homo sapiens, OVCAR-8, MTT, read-out: Antitumor proliferative activities of tumor cell (IC50, μM) OVCAR-8
Protocol: First, inhibitory activity on tumor proliferation in vitro is determined and the structure activity relationship is preliminarily studied, in which different solid tumor cell strains are selected for determining the antitumor activities in vitro of the synthesized compounds. Cell strains: Human ovarian cancer cell strain (OVCAR8), colon adenocarcinoma cell strain (HCT-116) Medium: OVCAR8: RPMI 1640+Fetal Bovine Serum […]
Please assign Criterion not met whenever IC50 is at or above 1 µM, and Criterion met whenever it is below.

compound	assigned-class
Cn1ncc(Cl)c1-c1cc(C(=O)N[C@@H]2CNC(CCCO)C[C@H]2c2ccc(Cl)c(Cl)c2)oc1Cl (stereo partly shown)	Criterion met
Cn1ncc(Cl)c1-c1cc(C(=O)N[C@@H]2CNC(CC(N)=O)C[C@H]2c2ccc(Cl)c(Cl)c2)oc1Cl (stereo partly shown)	Criterion met
Cc1cc(C(=O)N[C@@H]2CNCC[C@H]2c2ccc(F)c(F)c2)ncc1-c1c(Cl)cnn1C	Criterion not met
Cn1ncc(Cl)c1-c1cc(C(=O)N[C@@H]2CNC(CC(=O)NC3CC3)C[C@H]2c2ccc(Cl)c(Cl)c2)oc1Cl (stereo partly shown)	Criterion met

Prompt: Lab note: IC50 threshold 1 µM. Does this compound come in strictly under it? CNC(=O)CC1C[C@@H](c2ccc(F)c(F)c2)[C@H](NC(=O)c2ccc(-c3c(Cl)cnn3C)cc2)CN1 (stereo partly shown)
Response: Criterion not met

Prompt: Lab note: IC50 threshold 1 µM. Does this compound come in strictly under it? Cn1ncc(Cl)c1-c1cc(C(=O)N[C@@H]2CNC(CCO)C[C@H]2c2ccc(F)c(F)c2)oc1Cl (stereo partly shown)
Response: Criterion met

Prompt: Lab note: IC50 threshold 1 µM. Does this compound come in strictly under it? CCc1cnn(C)c1-c1cc(C(=O)N[C@H]2CNCC[C@@H]2c2ccc(Cl)cc2)nc(C)n1 (racemic)
Response: Criterion not met
